molecular target: T1, human CD33 (human, UniProt P20138 18-364); experiment: flow cytometry, human primary T cells;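 note: binding of anti-CD33 antibodies at 10 ug/ml to human primary T cells, 1 h on ice, detected with PE-labelled secondary antibody, read as flow cytometry MFI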
T1 construct: CD33 on human primary dendritic cells, macrophages, monocytes and T cells and on CHO cells expressing recombinant human CD33; also called Siglec-3; hCD33
T1 sequence (P20138 18-364): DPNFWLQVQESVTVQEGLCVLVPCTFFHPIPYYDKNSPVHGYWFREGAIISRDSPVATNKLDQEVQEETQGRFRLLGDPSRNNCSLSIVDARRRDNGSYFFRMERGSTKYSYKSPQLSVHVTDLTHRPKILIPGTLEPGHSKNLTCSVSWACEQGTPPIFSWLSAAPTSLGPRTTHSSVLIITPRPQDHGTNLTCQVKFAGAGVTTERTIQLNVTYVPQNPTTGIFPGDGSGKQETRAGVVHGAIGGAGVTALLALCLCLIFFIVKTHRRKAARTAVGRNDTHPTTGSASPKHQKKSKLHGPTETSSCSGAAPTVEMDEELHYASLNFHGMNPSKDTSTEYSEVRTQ
assay_metric: T cell MFI

Okay, here is my list. What is T cell MFI for each of these?
1. C-28 (antibody, V domains shown, human IgG1) VH: EVQLVESGGGLVQPGGSLRLSCAASGFTFSSYWMSWVRQAPGKGLEWVANINQDGSEKYYVDSVKGRFTISRDNAKNSLYLQMNSLRAEDTAVYYCAREGRRTMNAFDIWGQGTMVTVSS VL: DIQMTQSPSSLSASVGDRVTITCRASQSISSYLNWYQQKPGKAPKLLIYGASSLQSGVPSRFSGSGSGTDFTLTISSLQPEDFATYYCQQGYDVPITFGGGTKVEIK
2. C-33 (antibody, V domains shown, human IgG1) VH: EVQLVESGGGLVQPGGSLRLSCAASGFTFSSYWMSWVRQAPGKGLEWVANIKSDGSEKYYVDSVKGRFTISRDNAKNSLYLQMNSLRAEDTAVYYCAREGRPRLGYAAFDIWGQGTMVTVSS VL: DIQMTQSPSSLSASVGDRVTITCRASQSISSYLNWYQQKPGKAPKLLIYAASSLQSGVPSRFSGSGSGTDFTLTISSLQPEDFATYYCQQQYDLPITFGGGTKVEIK
3. C-19 (antibody, V domains shown, human IgG1) VH: QLQLQESGPGLVKPSETLSLTCTVSGGSISSSSYAWGWIRQPPGKGLEWIGSIYYSGSTYYNPSLKSRVTISVDTSKNQFSLKLSSVTAADTAVYYCARVGYTRPYGMDVWGQGTTVTVSS VL: DIQMTQSPSSVSASVGDRVTITCRASQGISSWLAWYQQKPGKAPKLLIYAASSLQSGVPSRFSGSGSGTDFTLTISSLQPEDFATYYCQQINAHPTFGGGTKVEIK

*A*
1. 402
2. 228
3. 470
